- Test system: RET
- condition parameters: concentration: 1 μM, replicates: in singlicate; n = 1;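 also: KINOMEscan kinase panel screen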
Would you mind telling me the reported %Inh of each entry?
// note: answer is a bare numeric in %

Qu. What measured %Inh is associated with Fc1ccc(-c2ncn(CCCN3CCOCC3)c2-c2ccccn2)cc1 [SB-211742] on RET?
Ans. 7

Qu. Lookup COc1ccc(S(=O)(=O)NC2CCN(c3cc(C)nc(Nc4cccc(C#N)c4)n3)CC2)cc1.O=C(O)C(F)(F)F [GSK1653539]
Ans. 0

Qu. Then Cc1c(Cn2c(C)nn3c(=O)cc(N4CCOC(C)C4)nc23)cccc1C(F)(F)F (stereo not shown) [GSK2344444] ?
Ans. 1

Qu. Please answer likewise for COc1cc2ncn(-c3cc(OCc4sccc4Cl)c(C(N)=O)s3)c2cc1OC [GSK448459]
Ans. 26

====

Give %Inh for every item shown.
- System: SRMS
- condition parameters: concentration: 1 μM, replicates: in singlicate; n = 1
Provide only the numeric value, understood in %.

Qu. For the compound shown here, O=C(Nc1n[nH]c2cc(-c3cccc(F)c3)ccc12)C1CC1 , give the reported %Inh.
Ans. 18

Qu. Then CNc1ncnc2[nH]ncc12 ?
Ans. 22

Qu. Proceed to O=C(NOCC1CC1)c1ccc(F)c(F)c1Nc1ccc(I)cc1Cl
Ans. 0

Qu. And for O=c1cc(N2CCOCC2)nc2n(Cc3cccc(Cl)c3Cl)c(C3CC3)nn12 ?
Ans. 0

Qu. What do you get for Fc1ccc(-c2ncn(CCCN3CCOCC3)c2-c2ccccn2)cc1 ?
Ans. 0

Qu. Here is the next compound: C[C@@H](Oc1cc(-n2cnc3ccc(NC(=O)NC(C)(C)C)cc32)sc1C(N)=O)c1ccccc1Cl
Ans. 0

Qu. Repeat for the following compound: COc1ccc(Nc2ncc(C#N)c(Nc3ccccc3C(N)=O)n2)cc1N1CCN(C)CC1.Cl
Ans. 99.5

Qu. Same again, this time with O=C1NC(=O)C(N2CCc3ccccc32)=C1c1cccc(Cl)c1
Ans. 0

Qu. And the next one, Cc1nnc(-c2ccc3ncc(-c4ccc(S(C)=O)cc4)n3c2)o1 (stereo not shown) ?
Ans. 0

Qu. Try this compound too: Cc1c(Cn2c(C)nn3c(=O)cc(N4CCOC(C)C4)nc23)cccc1C(F)(F)F (stereo not shown)
Ans. 0

Qu. What about Cc1nnc(-c2ccc(C)c(-c3ccc(C(=O)Nc4ccc(NS(C)(=O)=O)cc4)cc3)c2)o1 ?
Ans. 2

Qu. Quick one: CCc1nc(-c2cccc(C)c2)c(-c2ccnc(NCc3ccccc3)c2)s1
Ans. 1

Qu. Now the compound CC(C)(C)n1cnc2c(N)ncnc21
Ans. 0

Qu. And then O=C(c1ccc(-c2cc(-c3c[nH]nc3-c3ccccn3)ccn2)cc1)N1CCOCC1 , what is it?
Ans. 28

Qu. Param item: O=c1cc(N2CCOCC2)nc2n(Cc3cccc(C(F)(F)F)c3)ccn12
Ans. 0

Qu. Moving on to Cc1cccc(-c2nc(Nc3ccc4ncsc4c3)c3ccccc3n2)n1
Ans. 8

====

- Test system: CSNK2A1
- condition parameters: concentration: 1 μM, replicates: in singlicate; n = 1
observable: %Inh
A complete answer gives the number followed by the unit.

Qu. Entry CCCCCc1nc2c(N)ncnc2n1CCCCC has what %Inh?
Ans. 0%

Qu. CC(C)(C)n1cnc2c(N)ncnc21 , same question.
Ans. 0%

Qu. Can you handle O=C1NC(=O)C(N2CCc3ccccc32)=C1c1cccc(Cl)c1 next?
Ans. 0%

Qu. // next record COc1ccc(Nc2nccc(N3CCC(NC(=O)Nc4cc(C)ccc4C)C3)n2)cc1 (centres unmarked)
Ans. 0%

Qu. Follow-up item: NS(=O)(=O)CCc1cccc(Nc2nccc(-c3c(-c4cccc(NC(=O)c5c(F)cccc5F)c4)nn4ccccc34)n2)c1
Ans. 9%

Qu. What about this compound? O=c1cc(N2CCOCC2)nc2n(Cc3cccc4ccccc34)ccn12
Ans. 13%

Qu. Then what about the compound Cc1cccc(-c2nc(Nc3ccc4ncsc4c3)c3ccccc3n2)n1 ?
Ans. 0%

Qu. Field entry: COCCNC(=O)c1ccc(-c2cc(C(=O)NC3CC3)cc(F)c2C)cc1
Ans. 0%

Qu. And for CCc1ccnc(/C=C/c2n[nH]c3cc(Sc4ccccc4C(=O)NC)ccc23)c1 ?
Ans. 0%

Qu. How about this compound: CN(C(=O)c1ccc(-c2cc(-c3c[nH]nc3-c3ccccn3)ccn2)cc1)C1CCOCC1
Ans. 0%

Qu. Would you kindly repeat that for Cc1ccc(C(=O)NCC(N)=O)cc1-n1c(C)cc(OCc2ccc(F)cc2F)c(Br)c1=O ?
Ans. 0%

Qu. # iterate: CN(C1=C(c2ccccc2)C(=O)NC1=O)c1ccccc1
Ans. 1%

Qu. Another compound: Cc1nnc(-c2ccc3ncc(-c4ccc(S(C)=O)cc4)n3c2)o1 (centres unmarked)
Ans. 0%

Qu. Ok, now COc1ccc(Nc2nccc(N3CCC(NC(=O)Nc4cccc(C(C)=O)c4)C3)n2)cc1 (centres unmarked)
Ans. 0%

Qu. CSc1ccc(-c2cc3ncnc(SCC(=O)O)c3s2)cc1 ?
Ans. 22%

Qu. Next compound up: COc1cc2ncn(-c3cc(OCc4sccc4Cl)c(C(N)=O)s3)c2cc1OC
Ans. 25%

Qu. Okay, and Cc1cccc(-c2nc(-c3ccc(S(C)(=O)=O)cc3)sc2-c2ccncc2)c1 ?
Ans. 0%

Qu. Another compound to look at: COc1ccc(COc2cc(-n3cnc4ccccc43)sc2C(N)=O)cc1
Ans. 4%

Qu. Next up: O=c1cc(N2CCOCC2)nc2n(Cc3cccc(C(F)(F)F)c3)ccn12
Ans. 0%

Qu. Another compound to look at: Nc1nccc(-c2c(-c3ccc(F)cc3)ncn2C2CCN(CC(F)(F)F)CC2)n1
Ans. 0%

Qu. Moving on to the next compound: COc1cc(Nc2nccc(N3CCC(NC(=O)c4cccc(NC(C)=O)c4)C3)n2)cc(OC)c1OC (centres unmarked)
Ans. 17%

Qu. What do we get for COc1ccc(S(=O)(=O)NC2CCN(c3cc(C)nc(Nc4cccc(C#N)c4)n3)CC2)cc1.O=C(O)C(F)(F)F ?
Ans. 0%

Qu. Please give the result for COc1cc2c(cc1OCCN1CCN(C)CC1)ncc1c3ccc(C#N)cc3[nH]c21 too.
Ans. 73%

Qu. How about this compound: Cc1ccc(NC(=O)c2ccnc(N3CCN(C)CC3)c2)cc1-c1ccc(C(=O)NCC2CC2)cc1
Ans. 0%

Qu. What do we get for Cl.Oc1cccc(Nc2ccnc3cc(-c4ccncc4)ccc23)c1 ?
Ans. 0%

Qu. Try the compound Fc1ccc(-c2ncn(CCCN3CCOCC3)c2-c2ccccn2)cc1
Ans. 0%

Qu. Proceed to Fc1ccc(-c2ncn(CCCN3CCOCC3)c2-c2cccnc2)cc1
Ans. 0%

Qu. Entry to check: Cl.Nc1ncnc2occ(-c3ccc(NC(=O)Nc4cc(C(F)(F)F)ccc4F)cc3)c12
Ans. 0%

Qu. Param item: O=C(Nc1cccc(-c2nn3ncccc3c2-c2ccnc(Nc3cccc(C(F)(F)F)c3)n2)c1)c1c(F)cccc1F
Ans. 0%

Qu. Moving on to the next compound: Nc1nc(-c2ccc3c(N)n[nH]c3c2)cc(N2CCCC2)n1
Ans. 0%

Qu. And the next one, COc1cc2c(cc1OC[C@@H](O)CO)ncc1c3ccc(C#N)cc3[nH]c21 ?
Ans. 81%

Qu. Same lookup for Cn1cc(-c2ccc3c(c2)CCN3C(=O)Cc2ccccc2Cl)c2c(N)ncnc21 , please.
Ans. 0%

Qu. For COc1ccc(CNC(=O)NC2CCN(c3ccnc(Nc4ccc(OC)cc4)n3)C2)cc1 (centres unmarked) then?
Ans. 7%

Qu. Then Cc1nnc(-c2ccc3occ(-c4ccc(C(C)O)cc4)c3c2)o1 (centres unmarked) ?
Ans. 25%

Qu. Here is the next compound: CN1c2ccc(CNc3ccc(F)cc3)cc2-c2c(cnn2C)S1(=O)=O
Ans. 0%

Qu. O=c1cc(N2CCOCC2)nc2n(Cc3cccc(F)c3)ccn12 ?
Ans. 0%

Qu. Follow-up entry: CCn1cnc2c(N)ncnc21
Ans. 12%

Qu. What do we get for NS(=O)(=O)c1cccc(-c2ccc3nccc(-c4cccc(S(N)(=O)=O)c4)c3c2)c1 ?
Ans. 0%
